Test system: OneTaq polymerase
Assay: PCR-based screen and amplification of DNA containing unnatural base pairs, OneTaq (Example 1)
Format: biochemical
Details: OneTaq, 16 cycles, 1 min extension
Experimental: […] Specific PCR assay conditions. […] After elution with 20 μl of water, the DNA concentration was measured using fluorescent dye binding (Quant-iT dsDNA HS Assay kit, Life Technologies), and purified amplicons were sequenced in triplicate with both Primer1 and Primer2 to determine UBP retention and thus amplification fidelity. […]
readout-label: Fidelity, % (%)
Reply numerically in %, unit not repeated.

Previously resolved entries follow.
1) COc1ccc([C@H]2C[C@H](O)[C@@H](COP(=O)(O)OP(=O)(O)OP(=O)(O)O)O2)c(OC)c1.O=P(O)(O)OP(=O)(O)OP(=O)(O)OC[C@H]1O[C@@H](n2ccc3ccsc3c2=S)C[C@@H]1O [TPT3-DMO] = 98.23
2) CSc1ccc(C2CC(O)C(CO)O2)c(SC)n1.OCC1OC(n2ccc3ccsc3c2=S)CC1O (stereo not shown) [TPT3-TOK576] = 98.35
3) COc1cc(C)ccc1[C@H]1C[C@H](O)[C@@H](COP(=O)(O)OP(=O)(O)OP(=O)(O)O)O1.O=P(O)(O)OP(=O)(O)OP(=O)(O)OC[C@H]1O[C@@H](n2ccc3ccsc3c2=S)C[C@@H]1O [TPT3-MMO2] = 99.06
4) CSc1nc(C)ccc1[C@H]1C[C@H](O)[C@@H](COP(=O)(O)OP(=O)(O)OP(=O)(O)O)O1.O=P(O)(O)OP(=O)(O)OP(=O)(O)OC[C@H]1O[C@@H](n2ccc3ccsc3c2=S)C[C@@H]1O [TPT3-TOK588] = 94.99

Moving on to the next compound.
Recorded Fidelity, % of COc1cc2ccccc2cc1[C@H]1C[C@H](O)[C@@H](COP(=O)(O)OP(=O)(O)OP(=O)(O)O)O1.O=P(O)(O)OP(=O)(O)OP(=O)(O)OC[C@H]1O[C@@H](n2ccc3ccsc3c2=S)C[C@@H]1O [TPT3-NaM] , please.
99.92

====

target: Taq polymerase (Thermus aquaticus); construct: purchased New England Biolabs (Ipswich, Mass.); test: PCR-based screen and amplification of DNA containing unnatural base pairs, Taq (Example 1); format: biochemical; conditions: Taq, 10 s Extension, 52 cycles, D6 template
Sequence (P19821 whole entry): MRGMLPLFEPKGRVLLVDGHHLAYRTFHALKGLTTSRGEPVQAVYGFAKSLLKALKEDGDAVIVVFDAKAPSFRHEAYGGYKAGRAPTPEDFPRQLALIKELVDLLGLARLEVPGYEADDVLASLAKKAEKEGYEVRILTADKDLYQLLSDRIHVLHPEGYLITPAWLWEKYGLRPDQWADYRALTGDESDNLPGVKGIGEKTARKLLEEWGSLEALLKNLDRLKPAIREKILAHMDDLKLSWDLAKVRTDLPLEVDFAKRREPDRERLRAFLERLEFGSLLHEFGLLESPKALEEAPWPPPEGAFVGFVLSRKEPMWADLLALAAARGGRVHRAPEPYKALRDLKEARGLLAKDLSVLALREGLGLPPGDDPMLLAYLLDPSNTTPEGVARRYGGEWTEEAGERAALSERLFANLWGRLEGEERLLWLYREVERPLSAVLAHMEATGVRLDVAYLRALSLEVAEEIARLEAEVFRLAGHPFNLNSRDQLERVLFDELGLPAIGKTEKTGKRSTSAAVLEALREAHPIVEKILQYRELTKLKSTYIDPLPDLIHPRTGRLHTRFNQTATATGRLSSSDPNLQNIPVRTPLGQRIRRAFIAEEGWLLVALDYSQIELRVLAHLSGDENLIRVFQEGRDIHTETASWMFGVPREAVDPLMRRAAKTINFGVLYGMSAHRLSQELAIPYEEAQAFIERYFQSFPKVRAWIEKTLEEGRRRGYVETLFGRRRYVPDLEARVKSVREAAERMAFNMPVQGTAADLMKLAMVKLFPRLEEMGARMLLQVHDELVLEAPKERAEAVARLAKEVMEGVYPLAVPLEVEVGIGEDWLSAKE
Amplification, ×10^12 values for the compounds below.

1. COc1cc(I)ccc1[C@H]1C[C@H](O)[C@@H](COP(=O)(O)OP(=O)(O)OP(=O)(O)O)O1.O=P(O)(O)OP(=O)(O)OP(=O)(O)OC[C@H]1O[C@@H](n2cc(F)c3ccsc3c2=S)C[C@@H]1O = 5.6 ×10^12

Recorded Amplification, ×10^12 of COc1cc2ccccc2cc1[C@H]1C[C@H](O)[C@@H](COP(=O)(O)OP(=O)(O)OP(=O)(O)O)O1.O=P(O)(O)OP(=O)(O)OP(=O)(O)OC[C@H]1O[C@@H](n2cc(F)c3ccsc3c2=S)C[C@@H]1O , please.
3.7 ×10^12

Recorded Amplification, ×10^12 of COc1cc2ccccc2cc1[C@H]1C[C@H](O)[C@@H](COP(=O)(O)OP(=O)(O)OP(=O)(O)O)O1.Cc1ccc2c(=S)n([C@H]3C[C@H](O)[C@@H](COP(=O)(O)OP(=O)(O)OP(=O)(O)O)O3)ccc2c1 [5SICS-NaM, reference compound] , please.
9.3 ×10^12

Recorded Amplification, ×10^12 of COc1cc(I)c(F)cc1[C@H]1C[C@H](O)[C@@H](COP(=O)(O)OP(=O)(O)OP(=O)(O)O)O1.O=P(O)(O)OP(=O)(O)OP(=O)(O)OC[C@H]1O[C@@H](n2ccc3ccsc3c2=S)C[C@@H]1O , please.
8.5 ×10^12

Recorded Amplification, ×10^12 of C#Cc1cc(OC)c([C@H]2C[C@H](O)[C@@H](COP(=O)(O)OP(=O)(O)OP(=O)(O)O)O2)cc1F.O=P(O)(O)OP(=O)(O)OP(=O)(O)OC[C@H]1O[C@@H](n2cc(F)c3ccsc3c2=S)C[C@@H]1O , please.
5.7 ×10^12

Recorded Amplification, ×10^12 of COc1cc(I)c(F)cc1[C@H]1C[C@H](O)[C@@H](COP(=O)(O)OP(=O)(O)OP(=O)(O)O)O1.O=P(O)(O)OP(=O)(O)OP(=O)(O)OC[C@H]1O[C@@H](n2cc(F)c3ccsc3c2=S)C[C@@H]1O , please.
4.8 ×10^12

Recorded Amplification, ×10^12 of COc1cc2ccccc2cc1[C@H]1C[C@H](O)[C@@H](COP(=O)(O)OP(=O)(O)OP(=O)(O)O)O1.O=P(O)(O)OP(=O)(O)OP(=O)(O)OC[C@H]1O[C@@H](n2ccc3ccsc3c2=S)C[C@@H]1O , please.
5.8 ×10^12

Recorded Amplification, ×10^12 of C#Cc1cc(OC)c([C@H]2C[C@H](O)[C@@H](COP(=O)(O)OP(=O)(O)OP(=O)(O)O)O2)cc1F.O=P(O)(O)OP(=O)(O)OP(=O)(O)OC[C@H]1O[C@@H](n2ccc3ccsc3c2=S)C[C@@H]1O , please.
5.0 ×10^12

====

target: Taq polymerase (Thermus aquaticus); construct: purchased New England Biolabs (Ipswich, Mass.); test: PCR-based screen and amplification of DNA containing unnatural base pairs, Taq (Example 1); type: biochemical; details: Taq, 10 s Extension, 52 cycles, D6 template
Fidelity per Doubling, % values for the compounds below.
Reply numerically in %, unit not repeated.

Previously resolved entries follow.
1. C#Cc1cc(OC)c([C@H]2C[C@H](O)[C@@H](COP(=O)(O)OP(=O)(O)OP(=O)(O)O)O2)cc1F.O=P(O)(O)OP(=O)(O)OP(=O)(O)OC[C@H]1O[C@@H](n2ccc3ccsc3c2=S)C[C@@H]1O = 99.44
2. COc1cc2ccccc2cc1[C@H]1C[C@H](O)[C@@H](COP(=O)(O)OP(=O)(O)OP(=O)(O)O)O1.O=P(O)(O)OP(=O)(O)OP(=O)(O)OC[C@H]1O[C@@H](n2cc(F)c3ccsc3c2=S)C[C@@H]1O = 99.76
3. COc1cc(I)c(F)cc1[C@H]1C[C@H](O)[C@@H](COP(=O)(O)OP(=O)(O)OP(=O)(O)O)O1.O=P(O)(O)OP(=O)(O)OP(=O)(O)OC[C@H]1O[C@@H](n2ccc3ccsc3c2=S)C[C@@H]1O = 99.60
4. COc1cc(I)ccc1[C@H]1C[C@H](O)[C@@H](COP(=O)(O)OP(=O)(O)OP(=O)(O)O)O1.O=P(O)(O)OP(=O)(O)OP(=O)(O)OC[C@H]1O[C@@H](n2cc(F)c3ccsc3c2=S)C[C@@H]1O = 99.54

Recorded Fidelity per Doubling, % of COc1cc2ccccc2cc1[C@H]1C[C@H](O)[C@@H](COP(=O)(O)OP(=O)(O)OP(=O)(O)O)O1.O=P(O)(O)OP(=O)(O)OP(=O)(O)OC[C@H]1O[C@@H](n2ccc3ccsc3c2=S)C[C@@H]1O , please.
99.66

Recorded Fidelity per Doubling, % of COc1cc(I)c(F)cc1[C@H]1C[C@H](O)[C@@H](COP(=O)(O)OP(=O)(O)OP(=O)(O)O)O1.O=P(O)(O)OP(=O)(O)OP(=O)(O)OC[C@H]1O[C@@H](n2cc(F)c3ccsc3c2=S)C[C@@H]1O , please.
99.60

Recorded Fidelity per Doubling, % of C#Cc1cc(OC)c([C@H]2C[C@H](O)[C@@H](COP(=O)(O)OP(=O)(O)OP(=O)(O)O)O2)cc1F.O=P(O)(O)OP(=O)(O)OP(=O)(O)OC[C@H]1O[C@@H](n2cc(F)c3ccsc3c2=S)C[C@@H]1O , please.
99.51

====

Amplification, ×10^12 values for the compounds below.
system: OneTaq polymerase; experiment: PCR-based screen and amplification of DNA containing unnatural base pairs, OneTaq (Example 1); format: biochemical; conditions: OneTaq, 1 min Extension, 52 cycles, D6 template

Previously resolved entries follow.
1. COc1cc2ccccc2cc1[C@H]1C[C@H](O)[C@@H](COP(=O)(O)OP(=O)(O)OP(=O)(O)O)O1.O=P(O)(O)OP(=O)(O)OP(=O)(O)OC[C@H]1O[C@@H](n2cc(F)c3ccsc3c2=S)C[C@@H]1O [FTPT3-NaM] = 7.0 ×10^12
2. COc1cc(I)ccc1[C@H]1C[C@H](O)[C@@H](COP(=O)(O)OP(=O)(O)OP(=O)(O)O)O1.O=P(O)(O)OP(=O)(O)OP(=O)(O)OC[C@H]1O[C@@H](n2cc(F)c3ccsc3c2=S)C[C@@H]1O [FTPT3-IMO] = 7.1 ×10^12
3. COc1cc2ccccc2cc1[C@H]1C[C@H](O)[C@@H](COP(=O)(O)OP(=O)(O)OP(=O)(O)O)O1.O=P(O)(O)OP(=O)(O)OP(=O)(O)OC[C@H]1O[C@@H](n2ccc3ccsc3c2=S)C[C@@H]1O [TPT3-NaM] = 8.3 ×10^12

Moving on to the next compound.
Recorded Amplification, ×10^12 of COc1cc2ccccc2cc1[C@H]1C[C@H](O)[C@@H](COP(=O)(O)OP(=O)(O)OP(=O)(O)O)O1.Cc1ccc2c(=S)n([C@H]3C[C@H](O)[C@@H](COP(=O)(O)OP(=O)(O)OP(=O)(O)O)O3)ccc2c1 [5SICS-NaM, reference compound] , please.
8.1 ×10^12
